Measured MIC, listed per entry for reference.
# Tested on: Proteus vulgaris
# test.name: Antimicrobial activity against Proteus vulgaris Pv7 expressing beta-lactamase PER-1 by Etest
# Type: functional
Provide the reading as a plain figure in µg/mL.

Field: example entries. Status: answers known.
C[C@@H](O)[C@H]1C(=O)N2C(C(=O)O)=C(SCCNC=N)C[C@H]12 [IMIPENEM ANHYDROUS]
1
CCN1CCN(C(=O)N[C@@H](C(=O)N[C@@H]2C(=O)N3[C@@H]2SC(C)(C)[C@@H]3C(=O)O)c2ccccc2)C(=O)C1=O [PIPERACILLIN]
32
CO/N=C(\C(=O)N[C@@H]1C(=O)N2C(C(=O)[O-])=C(C[N+]3(C)CCCC3)CS[C@H]12)c1csc(N)n1 [CEFEPIME]
16

# ---- query compound ----
Exercise: Tell me MIC of CO/N=C(\C(=O)N[C@@H]1C(=O)N2C(C(=O)O)=C(COC(C)=O)CS[C@H]12)c1csc(N)n1 [CEFOTAXIME] when tested on Proteus vulgaris.
Key: 32

* * *

# System: Escherichia coli
# test.name: Antimicrobial activity against rifampin-resistant Escherichia coli J53 transconjugated with Providencia stuartii Ps5 expressing beta-lactamase PER-1 by […]
# Format: functional
Measured MIC, listed per entry for reference.
Provide the reading as a plain figure in mg/L.

Field: example entries. Status: answers known.
C[C@@H](O)[C@H]1C(=O)N2C(C(=O)O)=C(SCCNC=N)C[C@H]12 [IMIPENEM ANHYDROUS]
0.125
CO/N=C(\C(=O)N[C@@H]1C(=O)N2C(C(=O)O)=C(COC(C)=O)CS[C@H]12)c1csc(N)n1
32

# ---- query compound ----
Exercise: Identify measured MIC corresponding to `CCN1CCN(C(=O)N[C@@H](C(=O)N[C@@H]2C(=O)N3[C@@H]2SC(C)(C)[C@@H]3C(=O)O)c2ccccc2)C(=O)C1=O`
Key: 32

* * *

# Test system: Escherichia coli
# test.name: Antimicrobial activity against rifampin-resistant Escherichia coli J53 transconjugated with Proteus vulgaris Pv8 expressing beta-lactamase PER-1 by Etest
# Assay type: functional
Measured MIC, listed per entry for reference.

Field: example entries. Status: answers known.
C[C@@H](O)[C@H]1C(=O)N2C(C(=O)O)=C(SCCNC=N)C[C@H]12 [IMIPENEM ANHYDROUS]
0.125 µg/mL
CC(C)(O/N=C(\C(=O)N[C@@H]1C(=O)N2C(C(=O)[O-])=C(C[n+]3ccccc3)CS[C@H]12)c1csc(N)n1)C(=O)O [CEFTAZIDIME]
> 256 µg/mL
CO/N=C(\C(=O)N[C@@H]1C(=O)N2C(C(=O)O)=C(COC(C)=O)CS[C@H]12)c1csc(N)n1 [CEFOTAXIME]
16 µg/mL
CCN1CCN(C(=O)N[C@@H](C(=O)N[C@@H]2C(=O)N3[C@@H]2SC(C)(C)[C@@H]3C(=O)O)c2ccccc2)C(=O)C1=O [PIPERACILLIN]
16 µg/mL

Exercise: Identify measured MIC corresponding to CO/N=C(\C(=O)N[C@@H]1C(=O)N2C(C(=O)[O-])=C(C[N+]3(C)CCCC3)CS[C@H]12)c1csc(N)n1 [CEFEPIME]
Key: 8 µg/mL

* * *

# Test system: Escherichia coli
# test.name: Antimicrobial activity against rifampin-resistant Escherichia coli J53 transconjugated with Proteus vulgaris Pv7 expressing beta-lactamase PER-1 by Etest
# Format: functional
Measured MIC, listed per entry for reference.

Field: example entries. Status: answers known.
CO/N=C(\C(=O)N[C@@H]1C(=O)N2C(C(=O)O)=C(COC(C)=O)CS[C@H]12)c1csc(N)n1
31 µg/mL
C[C@@H](O)[C@H]1C(=O)N2C(C(=O)O)=C(SCCNC=N)C[C@H]12 [IMIPENEM ANHYDROUS]
0.125 µg/mL
CC(C)(O/N=C(\C(=O)N[C@@H]1C(=O)N2C(C(=O)[O-])=C(C[n+]3ccccc3)CS[C@H]12)c1csc(N)n1)C(=O)O
> 256 µg/mL

Exercise: Identify measured MIC corresponding to `CCN1CCN(C(=O)N[C@@H](C(=O)N[C@@H]2C(=O)N3[C@@H]2SC(C)(C)[C@@H]3C(=O)O)c2ccccc2)C(=O)C1=O`
Key: 32 µg/mL
